System: HeLa cells
Test: Cytotoxicity in HeLa cells by ATP content (ATPlite kit)
Format: cell-based
A collection of molecules and their measured CC50
property: CC50

- O=c1n(Cc2nc3cc(Br)ccc3n2CCCCO)c2cc(F)ccc2n1C1CC1: > 9.84 µM
- O=c1n(Cc2nc3cc(Br)ccc3n2CCCCO)c2cnccc2n1C1CC1: > 98.4 µM
- CC(C)(C)C(=O)OCCCCn1c(Cn2c(=O)n(C3CC3)c3ccc(F)cc32)nc2cc(Cl)ccc21: > 9.84 µM
- CS(=O)(=O)CCCn1c(Cn2c(=O)n(C3CC3)c3ccc(F)cc32)nc2cc(Br)ccc21: > 9.84 µM
- O=c1n(Cc2nc3cc(Cl)ccc3n2CCCCO)c2cc(F)ccc2n1C1CC1: > 9.84 µM
- CS(=O)(=O)CCCn1c(Cn2c(=O)n(C3CC3)c3ccccc32)nc2cc(Cl)ccc21: > 9.84 µM
- CS(=O)(=O)CCCn1c(Cn2c(=O)n(C3CC3)c3ccc(F)cc32)nc2cc(Cl)ccc21: > 9.84 µM
- CS(=O)(=O)NCCCn1c(Cn2c(=O)n(C3CC3)c3ccncc32)nc2cc(Br)ccc21: > 101 µM

---

Tested on: rgRSV224 virus
Assay: microbe, parasite or virus in culture
Format: cell-based, respiratory syncytial virus (RSV)
Conditions: Table 2; selectivity index, CC50 (HeLa cytotoxicity) over EC50 (rgRSV224)
property: SI CC50/EC50

• CN(C(=O)CCCn1c(Cn2c(=O)n(C3CC3)c3ccncc32)nc2cc(Br)ccc21)S(C)(=O)=O = >177178
• O=C(CCCn1c(Cn2c(=O)n(C3CC3)c3ccncc32)nc2cc(Br)ccc21)N1CCOCC1 = >102584
• CNC(=O)CCCn1c(Cn2c(=O)n(C3CC3)c3ccncc32)nc2cc(Br)ccc21 = >111709
• CC(C)(C)OC(=O)Cn1c(=O)n(Cc2nc3cc(Cl)ccc3n2CCCCF)c2cnccc21 = >49120
• O=c1n(Cc2nc3cc(Cl)ccc3n2CCCNc2ncccn2)c2cnccc2n1C1CC1 = 302162
• O=C(CCCn1c(Cn2c(=O)n(C3CC3)c3ccncc32)nc2cc(Cl)ccc21)N1CCOCC1 = >98994
• O=C1c2ccccc2C(=O)N1CCCCn1c(Cn2c(=O)n(C3CC3)c3ccncc32)nc2cc(Cl)ccc21 = >44185
• O=c1n(Cc2ccc(F)cc2)c2ccncc2n1Cc1nc2cc(Cl)ccc2n1CCCCF = 503466
• O=C(CCCn1c(Cn2c(=O)n(C3CC3)c3ccncc32)nc2cc(Br)ccc21)NCCS(=O)(=O)n1ccnc1 = >445390
• NS(=O)(=O)NC(=O)CCCn1c(Cn2c(=O)n(C3CC3)c3ccncc32)nc2cc(Br)ccc21 = >214887
• O=c1n(Cc2nc3cc(Cl)ccc3n2CCCn2ccnc2)c2cnccc2n1C1CC1 = >401504
• CS(=O)(=O)n1c(=O)n(Cc2nc3cc(Cl)ccc3n2CCCCF)c2cnccc21 = >1 048 580
• O=c1n(Cc2nc3cc(Cl)ccc3n2CCCCF)c2cnccc2n1C1CC1 = >267110
• CCCCS(=O)(=O)NC(=O)CCCn1c(Cn2c(=O)n(C3CC3)c3ccncc32)nc2cc(Br)ccc21 = >13798
• N#CCCCn1c(Cn2c(=O)n(C3CC3)c3ccccc32)nc2cc(Cl)ccc21 = >159787
• CC(C)CCn1c(Cn2c(=O)n(C3CC3)c3ccc(F)cc32)nc2cc(Cl)ccc21 = 14563
• O=C(CCn1c(Cn2c(=O)n(C3CC3)c3ccncc32)nc2cc(Cl)ccc21)N1CCOCC1 = >68795
